Data credit: patent US9789082B2

Molecular target: human Somatostatin 4 receptor (SSTR4) (Homo sapiens (Human))
Sequence (P31391 whole entry): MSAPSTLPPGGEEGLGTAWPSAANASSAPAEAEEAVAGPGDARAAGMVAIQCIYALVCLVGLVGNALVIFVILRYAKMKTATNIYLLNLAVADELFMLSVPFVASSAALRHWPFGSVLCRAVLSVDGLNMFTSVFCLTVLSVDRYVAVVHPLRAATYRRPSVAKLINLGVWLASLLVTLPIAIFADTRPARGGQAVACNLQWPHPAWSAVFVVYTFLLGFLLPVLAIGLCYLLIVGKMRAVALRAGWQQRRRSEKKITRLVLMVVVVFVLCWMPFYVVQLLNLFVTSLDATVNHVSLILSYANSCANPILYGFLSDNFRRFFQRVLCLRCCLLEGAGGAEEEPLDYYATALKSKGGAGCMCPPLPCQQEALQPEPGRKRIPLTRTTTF
Assay: cAMP assay with human somatostatin 4 receptor (hSSTR4 expressing H4 cells)
Assay type: cell-based
Conditions: cAMP assay, read-out: SSTR4 agonism EC50
Param label: returns Criterion met when EC50 < 30 nM, returns Criterion not met otherwise, including exact equality.

| molecule | classification |
| --- | --- |
| Cn1nc(C(C)(C)NC(=O)[C@H]2[C@@H]3CNC[C@@H]32)c2ncccc21 | Criterion not met |
| CC(C)(NC(=O)[C@H]1[C@@H]2CNC[C@@H]21)C1COc2ccccc21 (single isomer, unassigned) [Example 174] | Criterion not met |
| Cc1cc(C#N)ccc1OCC(C)(C)NC(=O)[C@H]1[C@@H]2CNC[C@@H]21.Cl | Criterion met |
| CC(C)(NC(=O)[C@H]1[C@@H]2CNC[C@@H]21)c1nc(C2CC2)c2c(F)cccn12 | Criterion met |
| CC(C)(NC(=O)[C@H]1[C@@H]2CNC[C@@H]21)c1cnn2c1CCCC2 | Criterion not met |
| COc1cccn2c(C(C)(C)NC(=O)[C@H]3[C@@H]4CNC[C@@H]43)ncc12 | Criterion met |
| Cc1ccc(C(C)(C)NC(=O)[C@H]2[C@@H]3CNC[C@@H]32)c(C)n1 | Criterion not met |
| CC(C)(NC(=O)[C@H]1[C@@H]2CNC[C@@H]21)c1nc(Br)c2ccccn12 | Criterion met |
| Cc1ccccc1CC(C)(C)NC(=O)[C@H]1[C@@H]2CNC[C@@H]21 | Criterion not met |
| CC(NC(=O)[C@H]1[C@@H]2CNC[C@@H]21)c1nn(C)c2ccccc12 (single isomer, unassigned) [Example 113] | Criterion met |
| Cc1cc(C(C)(C)NC(=O)[C@H]2[C@@H]3CNC[C@@H]32)c2ccccc2n1 | Criterion met |
| CC(C)(NC(=O)[C@H]1[C@@H]2CNC[C@@H]21)c1nc(C(F)(F)F)nc2ccccc12 | Criterion met |
| CC(C)(NC(=O)[C@H]1[C@@H]2CNC[C@@H]21)c1nn(CC2CC2)c2ccccc12 | Criterion met |
| Cc1cc(F)cn2c(C(C)(C)NC(=O)[C@H]3[C@@H]4CNC[C@@H]43)ncc12 | Criterion met |
| CC(C)(COc1ncccc1C1CC1)NC(=O)[C@H]1[C@@H]2CNC[C@@H]21 | Criterion met |
| CC(C)(NC(=O)[C@H]1[C@@H]2CNC[C@@H]21)c1n[nH]c2c(F)cccc12 | Criterion met |
| Cc1nc(C(C)(C)NC(=O)[C@H]2[C@@H]3CNC[C@@H]32)n2ccccc12 | Criterion met |
| CC(C)(Cc1cccc2ccccc12)NC(=O)[C@H]1[C@@H]2CNC[C@@H]21 | Criterion met |
| CC(C)(COc1ccccc1F)NC(=O)[C@H]1[C@@H]2CNC[C@@H]21 | Criterion not met |
| CC(C)(NC(=O)[C@H]1[C@@H]2CNC[C@@H]21)c1nc2ccc(Cl)cc2[nH]1.Cl | Criterion met |
| CC(C)(COc1noc2ccccc12)NC(=O)[C@H]1[C@@H]2CNC[C@@H]21 | Criterion not met |

----------
Biological target: human SSTR1 (Homo sapiens (Human))
Sequence (P30872 whole entry): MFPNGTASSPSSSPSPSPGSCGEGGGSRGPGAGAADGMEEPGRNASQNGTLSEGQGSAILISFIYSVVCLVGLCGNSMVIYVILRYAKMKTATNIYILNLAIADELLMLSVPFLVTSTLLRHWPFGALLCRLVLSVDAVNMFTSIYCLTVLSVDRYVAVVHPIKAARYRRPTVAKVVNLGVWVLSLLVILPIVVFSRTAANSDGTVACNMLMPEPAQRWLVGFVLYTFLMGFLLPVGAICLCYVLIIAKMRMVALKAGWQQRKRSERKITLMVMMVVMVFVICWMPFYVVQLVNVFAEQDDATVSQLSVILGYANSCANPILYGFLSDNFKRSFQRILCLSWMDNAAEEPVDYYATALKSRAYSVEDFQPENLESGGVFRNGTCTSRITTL
Experiment: Radioligand binding assay, CHO cell membranes expressing recombinant human SSTR1
measurement type: Ki

| molecule | measurement type | endpoint value |
| --- | --- | --- |
| Cc1cccnc1OCC(C)(C)NC(=O)[C@H]1[C@@H]2CNC[C@@H]21 [Example 47] | Ki | > 9.15 µM |
| Cc1ccccc1OCC(C)(C)NC(=O)[C@H]1[C@@H]2CNC[C@@H]21.Cl [Example 40] | Ki | > 9.76 µM |
| CC(C)(COc1cnccc1C(F)(F)F)NC(=O)[C@H]1[C@@H]2CNC[C@@H]21 [Example 63] | Ki | > 7.51 µM |
| CC(C)(NC(=O)[C@H]1[C@@H]2CNC[C@@H]21)c1noc2c(F)cccc12 [Example 101] | Ki | > 9.09 µM |
| CC(C)(NC(=O)[C@H]1[C@@H]2CNC[C@@H]21)c1nc2ccc(Cl)cc2[nH]1.Cl [Example 11] | Ki | > 8.91 µM |
| CC(C)(NC(=O)[C@H]1[C@@H]2CNC[C@@H]21)c1ccnc2ccccc12.Cl [Example 21] | Ki | > 8.91 µM |
| Cc1cccnc1C(C)(C)NC(=O)[C@H]1[C@@H]2CNC[C@@H]21.Cl.Cl [Example 25] | Ki | > 8.96 µM |
| CC(C)(NC(=O)[C@H]1[C@@H]2CNC[C@@H]21)c1n[nH]c2ccccc12 [Example 94] | Ki | > 9.48 µM |
